B1: HDV Ribozyme (parent)
chain: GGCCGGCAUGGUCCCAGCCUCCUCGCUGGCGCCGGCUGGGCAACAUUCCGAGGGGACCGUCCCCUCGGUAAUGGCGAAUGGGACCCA

# Variants of: B1
# RUN DESCRIPTION: self-cleavage, relative activity (ratio to wild type); higher = more cleavage; co-transcriptional
QUANTITY KIND: self-cleavage
Lab note: record the figure alone, no unit after it.

Input: Indicate the recorded self-cleavage value for this variant: U9C C84U
Output: 0.415

Input: Indicate the recorded self-cleavage value for this variant: C63G G81A
Output: 0.453

Input: Indicate the recorded self-cleavage value for this variant: A8G C14A
Output: 0.0791

Input: Indicate the recorded self-cleavage value for this variant: U37A U65C
Output: 0.225

Continue with the next variant.
Input: Indicate the recorded self-cleavage value for this variant: G55C C61U
Output: 1
